Tested on: CDK8
Conditions: concentration: 1 μM, replicates: in singlicate; n = 1;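 note: KINOMEscan kinase panel screen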
%Inh overview
Give a bare numeral; the unit % is implied.

Answered examples (8):
Fc1ccc(-c2nc3n(c2-c2ccncc2)CCS3)cc1 [GI98581]    19
Cc1nccc(-c2c(-c3ccc(F)cc3)ncn2CCCN2CCOCC2)n1.Cl [SB-282975]    39
O=C(Nc1n[nH]c2nc(-c3ccco3)c(Br)cc12)C1CCN(Cc2ccccc2)C1.O=C(O)[C@H](O)[C@@H](O)C(=O)O (stereo not drawn) [SB-742034]    0
Cn1cncc1C(=O)NC1CCN(c2ccnc(Nc3ccc(F)cc3)n2)C1 (stereo not drawn) [GSK1379717]    29
Fc1ccc(-c2nn3cccc(F)c3c2-c2ccncc2)cc1 [GW475620]    15
Cc1ccc(-c2nc(Nc3ccncc3)c3ccccc3n2)s1 [GSK189015]    3
COc1ccc(CSc2nnc(-c3ccc4c(c3)CCO4)o2)cc1    0
CC(=O)c1c(C)c2cnc(Nc3ccc(N4CCNCC4)cn3)nc2n(C2CCCC2)c1=O    0

Next up:
*Q* Consider the compound COc1ccc2cc(-c3nc(-c4ccccc4C(C)C)[nH]c3-c3ccncc3)ccc2c1 [SB-660566] . State its measured %Inh.
*A* 0

###

System: MYO3A
Details: concentration: 1 μM, replicates: in singlicate; n = 1
Listing: %Inh of selected compounds
Number in %, nothing else.

Below are worked cases with known answers.
Cc1ccc(NC(=O)c2ccc(Cl)cc2)cc1-c1ccc(C(=O)Nc2ccncc2)cc1    16
Cc1c(Cn2c3ccccc3n3c(=O)cc(N4CCOCC4)nc23)cccc1C(F)(F)F    0
O=C1NC(=O)C(c2ccc(Cl)cc2)=C1Nc1ccc(O)cc1    0
O=C(Nc1n[nH]c2nc(-c3cccs3)c(Br)cc12)C1CC1    8

From here, focus on the item given below.
*Q* Entry `CN1c2ccc(-c3ccc(C(N)=O)cc3)cc2-c2[nH]ncc2S1(=O)=O` needs its %Inh filled in; supply it.
*A* 0

###

Tested on: HPK1
Conditions: concentration: 1 μM, replicates: in singlicate; n = 1
Classify on %Inh using low (below 10%), middle (10% to below 40%), high (40% or more)

CCc1ccc(-c2ccc3c(c2)-c2n[nH]cc2S(=O)(=O)N3C)cc1    middle
COC(=O)C(Cc1ccccc1)NC(=O)NC1CCN(c2ccnc(Nc3ccc(F)cc3)n2)C1 (centres unmarked) [GSK1379714]    high
Cc1ccc(NC(=O)Nc2ccccc2F)cc1-c1ccc(C(=O)Nc2ccncc2)cc1 [GSK1398477]    high
O=c1cc(N2CCOCC2)nc2n(Cc3ccccc3F)ccn12 [GSK2297428]    middle
O=C(Nc1n[nH]c2nc(-c3cccs3)c(Br)cc12)C1CC1 [SB-735297]    middle

*Q* Into which category would you place `CNCc1ccc2nc(NC(=O)c3ccc(C(C)(C)C)cc3)cn2c1` ?
*A* middle

*Q* Which class does COc1ccc(Nc2nccc(N3CCC(NC(=O)c4cc5ccccc5s4)C3)n2)cc1 (centres unmarked) [GSK1379738] fall in?
*A* high

*Q* Form: Item = O=C1NC(=O)C(c2ccc(Cl)cc2)=C1Nc1ccc(O)cc1 [SB-340867] ; Class = ?
*A* middle

*Q* Which category fits this record: `COc1ccc(-c2coc3ccc(-c4nnc(C)o4)cc23)cc1`
*A* low

*Q* Categorize the following entry: Nc1ncnc2occ(-c3ccc4c(c3)CCN4C(=O)Cc3cc(F)ccc3F)c12 [GSK2645446]
*A* middle

*Q* Kindly state the category for this compound: FC(F)(F)c1ccccc1-c1cc(-c2c[nH]nc2-c2ccccn2)ccn1 [GW679396]
*A* low

*Q* Which %Inh category applies to CCCCc1nn2ncccc2c1-c1ccnc(NC2CC2)n1 [GW684374] here?
*A* low

*Q* Sort into band: O=C(Nc1n[nH]c2cc(-c3ccsc3)ccc12)C1CC1 [SB-732932]
*A* low

###

Recorded %Inh by entry
Tested on: MAP4K4
Settings: concentration: 1 μM, replicates: in singlicate; n = 1
# output: bare number, implied unit %

Nc1ncnc2occ(-c3ccc4c(c3)CCN4C(=O)Cc3cc(F)ccc3F)c12 [GSK2645446]    0
CS(=O)(=O)Cc1ccc(Nc2nccc(-c3c(-c4cccc(NC(=O)C5CCCCC5)c4)nn4ncccc34)n2)cc1 [GSK350559]    0

*Q* Respond only with %Inh recorded for Cc1ccccc1Cn1ccn2c(=O)cc(N3CCOCC3)nc12 [GSK2269905]
*A* 0

*Q* Please look at this molecule and report its %Inh: Cc1ccccc1-c1cc(-c2c[nH]nc2-c2ccccn2)ccn1 [GW680061]
*A* 0

*Q* Answer with the recorded %Inh for the molecule listed here: O=C(Nc1n[nH]c2nc(-c3cccs3)c(Br)cc12)C1CCCC1 [SB-743341]
*A* 0

*Q* Entry Nc1nccc(-c2c(-c3ccc(F)cc3)ncn2C2CCN(Cc3ccccc3)CC2)n1 [SB-219980] needs its %Inh filled in; supply it.
*A* 10

*Q* Look up and report measured %Inh for this entry: COC(=O)C(Cc1ccccc1)NC(=O)NC1CCN(c2ccnc(Nc3ccc(F)cc3)n2)C1 (stereo not shown) [GSK1379714]
*A* 9

###

The reader will find reported %Inh values listed item by item below.
System: CAMK2G
Settings: concentration: 1 μM, replicates: in singlicate; n = 1
Output spec: scalar in %, unitless text.

# count of solved cases: 4
c1ccc(-c2ccnc3[nH]ccc23)cc1    21
COC(=O)c1cccc(NC(=O)NC2CCN(c3ccnc(Nc4ccc(OC)cc4)n3)C2)c1 (stereo not shown)    0
O=C(Nc1n[nH]c2cc(-c3ccsc3)ccc12)C1CC1    15
O=C1NC(=O)C(c2ccc(Cl)cc2)=C1Nc1cccc(Cl)c1    0

*Q* Respond only with %Inh recorded for `O=c1cc(N2CCOCC2)nc2n(Cc3ccccc3F)ccn12`
*A* 15

*Q* Given `CNc1cc(-c2ccc3c(N)n[nH]c3c2)nc(N)n1` , respond with its %Inh.
*A* 21

###

Test system: SGK2
Conditions: concentration: 1 μM, replicates: in singlicate; n = 1
property: %Inh (%)
Give just the numeric value; % need not be written.

COc1ccc2cc(-c3nc(-c4ccccc4C(C)C)[nH]c3-c3ccncc3)ccc2c1    0

*Q* For the compound `CCc1ccc(-c2ccc3c(c2)-c2n[nH]cc2S(=O)(=O)N3C)cc1` , give its reported %Inh.
*A* 0

*Q* Identify %Inh associated with the compound `CNc1cc(-c2ccc3c(N)n[nH]c3c2)nc(N)n1`
*A* 0

*Q* Identify measured %Inh corresponding to O=C(Nc1n[nH]c2nc(-c3ccco3)c(Br)cc12)C1CCN(Cc2ccccc2)C1.O=C(O)[C@H](O)[C@@H](O)C(=O)O (stereo not drawn)
*A* 27

*Q* Quickly give me recorded %Inh for `CCn1c(-c2ccccc2)nc2cnccc21`
*A* 9

*Q* Check the records and state %Inh for `Cc1ccc(NC(=O)c2ccc(Cl)cc2)cc1-c1ccc(C(=O)Nc2ccncc2)cc1`
*A* 0

*Q* Quote %Inh reported for `O=C(Nc1n[nH]c2nc(-c3cccs3)c(Br)cc12)C1CCCC1` please.
*A* 0

*Q* Specify %Inh for `Nc1ncnc2occ(-c3ccc4c(c3)CCN4C(=O)Cc3cc(F)ccc3F)c12` and stop.
*A* 0

###

Test system: EGFR
Settings: concentration: 1 μM, replicates: in singlicate; n = 1
Measured %Inh by item
Kindly answer with a numeric value in %, unit omitted.

O=c1cc(N2CCOCC2)nc2n(Cc3cccc(Cl)c3Cl)c3ccccc3n12    30
Fc1ccc(-c2nn3cccc(F)c3c2-c2ccncc2)cc1    52
CNCc1ccc2nc(NC(=O)c3ccc(C(C)(C)C)cc3)cn2c1    0
Cc1cccc2c(-c3ccncn3)c(-c3ccc(F)cc3)nn12    47
COc1ccc2cc(-c3nc(-c4ccccc4C(C)C)[nH]c3-c3ccncc3)ccc2c1    18

*Q* Send back EGFR %Inh of `Nc1nccc(-c2c(-c3ccc(F)cc3)ncn2C2CCN(Cc3ccccc3)CC2)n1` only.
*A* 10

*Q* Would you please give the reported %Inh of `O=c1cc(N2CCOCC2)nc2n(Cc3ccccc3F)ccn12` with EGFR?
*A* 18

*Q* Answer with %Inh of O=C(Nc1n[nH]c2nc(-c3ccco3)c(Br)cc12)C1CCN(Cc2ccccc2)C1.O=C(O)[C@H](O)[C@@H](O)C(=O)O (stereo not shown) measured for EGFR.
*A* 1

*Q* Quote %Inh with test system EGFR for `O=C(Nc1n[nH]c2cc(-c3ccsc3)ccc12)C1CC1`
*A* 0

*Q* Fill in: %Inh on EGFR, entry `COc1ccc(-c2coc3ccc(-c4nnc(C)o4)cc23)cc1`
*A* 0

*Q* State measured %Inh of the compound `O=C1NC(=O)C(c2ccc(Cl)cc2)=C1Nc1ccc(O)cc1` with EGFR.
*A* 5

*Q* Fill: %Inh (EGFR) for this compound `CC(C)c1ccc(O)cc1Nc1ccnc2ccc(C(F)(F)F)cc12`
*A* 37

*Q* Fill in: %Inh on EGFR, entry `CNc1cc(-c2ccc3c(N)n[nH]c3c2)nc(N)n1`
*A* 17
